Each entry below carries its reported pIC50.
Study Target: Recombinant JAK3 (Amino acids 781-1124) (Homo sapiens, UniProt P52333)
Construct: JAK3 (Amino acids 781-1124; NM_000215.3)
Sequence (P52333 781-1124): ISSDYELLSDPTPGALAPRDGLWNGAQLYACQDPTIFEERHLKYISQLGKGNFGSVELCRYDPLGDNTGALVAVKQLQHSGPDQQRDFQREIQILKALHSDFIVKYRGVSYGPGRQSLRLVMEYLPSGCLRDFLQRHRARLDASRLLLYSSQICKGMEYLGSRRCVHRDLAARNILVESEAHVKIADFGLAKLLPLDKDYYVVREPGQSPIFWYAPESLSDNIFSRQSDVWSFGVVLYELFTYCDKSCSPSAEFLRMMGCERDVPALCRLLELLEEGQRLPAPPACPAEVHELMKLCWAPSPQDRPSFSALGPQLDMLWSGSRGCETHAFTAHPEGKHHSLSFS
Method Summary: Kinase-Glo Luminescent Kinase Assay, recombinant JAK3
Test Conditions: 200 μg/ml Poly Glu-Tyr (4:1), ATP 1 uM, 90 min room temperature, luminescence
pIC50: −log10 of the molar value.

Form field pIC50, entry COCCNC(=O)C1CCCN(c2ccnc3cnc4[nH]ccc4c23)C1 (centres unmarked) : < 7.70

molecule CS(=O)(=O)CC(=O)N1CCCC(c2ccnc3cnc4[nH]ccc4c23)C1 (centres unmarked) , pIC50 observed: < 7.70

Summary for this molecule, N#CCC(=O)N1CCC[C@H](c2ccnc3cnc4[nH]ccc4c23)C1 : pIC50 is < 7.70

The molecule listed as CN(CC(F)(F)F)C(=O)C1CCN(c2ccnc3cnc4[nH]ccc4c23)CC1 has a reported pIC50 of 7.70 to 9.00

Please fill in: pIC50 reported for CC(C)(C)C(=O)N1CCC(c2ncnc3cnc4[nH]ccc4c23)C1 (centres unmarked) = < 7.70
